Numbers sourced from patent US10053468B2.

biological target: UniProt P51449; assay: RORγt binding test using fluorescent-labeled synthetic ligand (TR-FRET); conditions: read-out: Binding inhibitory rate of fluorescent-labeled synthetic ligand to RORγt at test compound 1 μM (%)
Sequence (P51449 1-497 isoform P51449-2, species assumed): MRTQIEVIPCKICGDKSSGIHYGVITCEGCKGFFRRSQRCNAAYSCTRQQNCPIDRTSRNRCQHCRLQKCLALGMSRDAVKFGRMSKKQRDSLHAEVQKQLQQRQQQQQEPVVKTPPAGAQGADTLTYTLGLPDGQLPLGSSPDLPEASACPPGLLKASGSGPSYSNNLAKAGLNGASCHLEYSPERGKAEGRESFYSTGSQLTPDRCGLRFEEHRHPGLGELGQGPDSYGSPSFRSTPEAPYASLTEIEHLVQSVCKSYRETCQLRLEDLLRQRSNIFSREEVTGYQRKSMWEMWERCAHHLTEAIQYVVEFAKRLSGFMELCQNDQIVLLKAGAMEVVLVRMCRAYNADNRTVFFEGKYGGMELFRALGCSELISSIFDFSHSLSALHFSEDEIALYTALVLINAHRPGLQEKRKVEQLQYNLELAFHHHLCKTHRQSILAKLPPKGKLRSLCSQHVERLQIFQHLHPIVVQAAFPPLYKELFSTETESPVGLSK
ENDPOINT LABEL: inhibition at 1 µM (%)
Just the number in %, nothing appended.

compound=COc1ccc2c(c1)CCN(C(=O)NCCCC(=O)O)[C@H]2C(=O)Nc1cc(F)c([Si](C)(C)C)c(F)c1 endpoint_label="inhibition at 1 µM" test_value=101
compound=CCOCC(C)(C)c1c(F)cc(NC(=O)[C@H]2c3ccc(OCC)cc3CCN2C(=O)c2cc(O)no2)cc1F endpoint_label="inhibition at 1 µM" test_value=102
compound="COc1ccc2c(n1)CCN(C(=O)Cc1cc(O)no1)C2C(=O)Nc1ccc(C(C)(C)C)c(F)c1 (stereo not shown)" endpoint_label="inhibition at 1 µM" test_value=102
compound="CCOc1ccc2c(c1)CCN(C(=O)CC(C)(O)CC(=O)O)[C@H]2C(=O)Nc1cc(F)c([Si](C)(C)C)c(F)c1 (stereo partly shown)" endpoint_label="inhibition at 1 µM" test_value=101
compound=CC[Si](C)(C)c1c(F)cc(NC(=O)[C@H]2c3ccc(OC)nc3CCN2C(=O)CCCC(=O)O)cc1F endpoint_label="inhibition at 1 µM" test_value=102
compound=CCOCC(C)(C)c1c(F)cc(NC(=O)[C@H]2c3ccc(OC)cc3CCN2C(=O)CCCC(=O)O)cc1F endpoint_label="inhibition at 1 µM" test_value=101

Task item: // inhibition at 1 µM lookup, key: `C[Si](C)(C)c1c(F)cc(NC(=O)[C@H]2c3ccc4c(c3CCN2C(=O)CCCC(=O)O)OCO4)cc1F`
Reply: 102

Task item: Same read-out for `COc1ccc2c(c1)CCN(C(=O)Cc1cc(O)no1)[C@H]2C(=O)Nc1cc(F)c(C(C)(C)COCC2CC2)c(F)c1` ?
Reply: 102

Task item: Also check `CCOc1ccc2c(n1)CCN(C(=O)c1cc(O)no1)[C@H]2C(=O)Nc1cc(F)c([Si](C)(C)C)c(F)c1`
Reply: 101

Task item: Again, but for `CC[Si](C)(C)c1c(F)cc(NC(=O)[C@H]2c3ccc(OC)cc3CCN2C(=O)Cc2cc(O)no2)cc1F`
Reply: 102

Task item: Further, for `COc1ccc2c(c1)CCN(C(=O)CCCC(=O)O)[C@H]2C(=O)Nc1ccc([Si](C)(C)C)c(F)c1` ?
Reply: 101

Task item: Now the compound `COc1ccc2c(c1)OCCN(C(=O)Cc1cc(O)no1)[C@H]2C(=O)Nc1cc(F)c([Si](C)(C)C)c(F)c1`
Reply: 102

Task item: Now consider `CC[Si](C)(C)c1c(F)cc(NC(=O)[C@H]2c3ccc(OC)nc3CCN2C(=O)c2cc(O)no2)cc1F` and answer again.
Reply: 101

Task item: # repeat for `CCOc1ccc2c(n1)CCN(C(=O)Cc1cc(O)no1)[C@H]2C(=O)Nc1cc(F)c2c(c1)CCC2(C)C`
Reply: 101

Task item: // same read-out, input: `CCOc1ccc2c(c1)CCN(C(=O)CCCC(=O)O)[C@H]2C(=O)Nc1ccc([Si](C)(C)C)c(C#N)c1`
Reply: 102

Task item: Another: `C[Si](C)(C)c1c(F)cc(NC(=O)[C@H]2c3ccc(OC(F)F)cc3CCN2C(=O)CCCC(=O)O)cc1F`
Reply: 102

Task item: Also `COCc1ccc2c(c1)CCN(C(=O)c1cc(O)no1)[C@H]2C(=O)Nc1cc(F)c(C(C)(C)COC)c(F)c1` , if possible.
Reply: 102
